Tested on: 299254-011-R-J1-PDC complex spheroid viability
Assay: Anticancer human tumor 299254-011-R-J1-PDC patient-derived melanoma cell line growth inhibition [POLQ]
Conditions: second compound 3.16 µM; first compound 0.001 µM; hits give low values
Procedure: Multicellular complex tumor spheroid response to Polymerase (POL) inhibitors (novobiocin, ART-558, RP6685) in combination with a variety of drugs and investigational agents in selected tumor cell lines The POL inhibitors (novobiocin, ART-558, and RP6685) were evaluated both individually and in combination with standard of care and investigational anticancer small molecules within a complex spheroid model of solid tumors. . […]
Parameter Measured: viability, T/C

>  <Compound>
CC[C@@]1(O)C(=O)OCc2c1cc1n(c2=O)Cc2cc3c(CN(C)C)c(O)ccc3nc2-1 + Cc1cccc(N(C)C(=O)C2C(O)CCN2c2nc(C)cc(C(F)(F)F)c2C#N)c1

>  <Assayed Target>
299254-011-R-J1-PDC complex spheroid viability

>  <Parameter Measured>
viability, T/C

>  <Test Result>
115%

$$$$
>  <Compound>
Cn1ncnc1[C@H]1c2n[nH]c(=O)c3cc(F)cc(c23)N[C@@H]1c1ccc(F)cc1 + COC1C(OC(N)=O)C(O)C(Oc2ccc3c(O)c(NC(=O)c4ccc(O)c(CC=C(C)C)c4)c(=O)oc3c2C)OC1(C)C

>  <Assayed Target>
299254-011-R-J1-PDC complex spheroid viability

>  <Parameter Measured>
viability, T/C

>  <Test Result>
103%

$$$$
>  <Compound>
CC[C@@]1(O)C(=O)OCc2c1cc1n(c2=O)Cc2cc3c(CN(C)C)c(O)ccc3nc2-1 + Nc1ccc(C#CCN(C(=O)Cc2ncc(C(F)(F)F)cc2C(F)(F)F)c2ccc(F)cc2)nn1

>  <Assayed Target>
299254-011-R-J1-PDC complex spheroid viability;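 note: spheroids exposed to drugs for one week before measurement; percent viability relative to DMSO vehicle control taken as 100%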

>  <Parameter Measured>
viability, T/C

>  <Test Result>
112%

$$$$
>  <Compound>
CC[C@@]1(O)C(=O)OCc2c1cc1n(c2=O)Cc2cc3c(CN(C)C)c(O)ccc3nc2-1 + COC1C(OC(N)=O)C(O)C(Oc2ccc3c(O)c(NC(=O)c4ccc(O)c(CC=C(C)C)c4)c(=O)oc3c2C)OC1(C)C

>  <Assayed Target>
299254-011-R-J1-PDC complex spheroid viability;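 note: spheroids exposed to drugs for one week before measurement; percent viability relative to DMSO vehicle control taken as 100%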

>  <Parameter Measured>
viability, T/C

>  <Test Result>
104%

$$$$
>  <Compound>
Cn1ncnc1[C@H]1c2n[nH]c(=O)c3cc(F)cc(c23)N[C@@H]1c1ccc(F)cc1 + Cc1cccc(N(C)C(=O)C2C(O)CCN2c2nc(C)cc(C(F)(F)F)c2C#N)c1

>  <Assayed Target>
299254-011-R-J1-PDC complex spheroid viability;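 note: spheroids exposed to drugs for one week before measurement; percent viability relative to DMSO vehicle control taken as 100%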

>  <Parameter Measured>
viability, T/C

>  <Test Result>
109%

$$$$
>  <Compound>
Cn1ncnc1[C@H]1c2n[nH]c(=O)c3cc(F)cc(c23)N[C@@H]1c1ccc(F)cc1 + Nc1ccc(C#CCN(C(=O)Cc2ncc(C(F)(F)F)cc2C(F)(F)F)c2ccc(F)cc2)nn1

>  <Assayed Target>
299254-011-R-J1-PDC complex spheroid viability;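 note: spheroids exposed to drugs for one week before measurement; percent viability relative to DMSO vehicle control taken as 100%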

>  <Parameter Measured>
viability, T/C

>  <Test Result>
103%

$$$$

Measured values drawn from PubChem BioAssay AID1963849 for this set.
